Cited source: patent US20260132182A1

Target: human GLP-1 receptor (human, UniProt P43220 24-463)
Test: cell-based or functional assay
Starred links: 1 amine or outer side, 2 acyl side, 3 side chain; linkers in the order of their positions; H or OH if unused. Non-standard residues stand in square brackets, D forms with d. Groups on a side chain read outwards from the residue. *: point of attachment. C20 diacid = O=C(O)CCCCCCCCCCCCCCCCCCC(=O)*; γGlu = O=C(O)[C@H](CCC(=O)[*:2])N[*:1]; εLys = N[C@@H](CCCCN[*:1])C(=O)[*:2]; Trx = NC[C@H]1CC[C@H](C(=O)O)CC1; AEEA = NCCOCCOCC(=O)O; Aib = CC(C)(N)C(=O)O
Measured Human GLP-1R potency [EC50 (pM)] accompanies every entry in the list below.
recorded_endpoint: Human GLP-1R potency [EC50 (pM)]

- Compound 0265 (peptide) peptide: H[Aib]EGTFTSDVSSYLEEK([AEEA-AEEA-γGlu-Trx-C20 diacid])AAREFIAWLVRGRGGGGEASELSTAALGRLSAELHELATLPRTETGSGSP-NH2: 6 pM
- Compound 0180 (peptide) peptide: H[Aib]EGTFTSDVSSYLEEQAAREFIEWLVRGRK([εLys-AEEA-AEEA-γGlu-Trx-C20 diacid])EAEAEASELSTAALGRLSAELHELATLPRTETGSGSP-NH2: 6.4 pM
- Compound 0416 (peptide) peptide: HAEGTFTSK([AEEA-AEEA-γGlu-Trx-C20 diacid])VSSYLEEQAAREFIEWLVRGRGEASELSTAALGRLSAELHELATLPRTETGSGSP-NH2: 105 pM
- Compound 0473 (peptide) peptide: HWEGTFTSDVSSYLEEK([AEEA-AEEA-γGlu-C20 diacid])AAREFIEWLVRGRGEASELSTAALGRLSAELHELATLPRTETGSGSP-NH2: 3.1 pM
